# Tested on: RAW264.7
# experiment description: Antiinflammatory activity in LPS-induced mouse RAW264.7 cells assessed as inhibition of NO production pretreated for 1 hr followed by LPS stimulation and measured after 24 hrs by griess reagent based assay
# Type: functional, cell-based
pIC50: −log10 of the molar value.
quantity name: pIC50

smiles string	value observed
COc1ccc2c(c1)oc(=O)n2CCNC(=O)/C=C/c1ccc([N+](=O)[O-])o1	6.10

a. COc1ccc2c(c1)oc(=O)n2CCNC(=O)/C=C/c1ccco1
b. Cc1ccc(-c2cc(C(F)(F)F)nn2-c2ccc(S(N)(=O)=O)cc2)cc1
Kindly identify which of a and b has the larger recorded pIC50 value. // respond with label for picked entry
a
